Can you tell me inhibition at 5 µM for the items I'm about to list?
- TGT: UniProtKB P04629
- Sequence (P04629 33-796, species assumed): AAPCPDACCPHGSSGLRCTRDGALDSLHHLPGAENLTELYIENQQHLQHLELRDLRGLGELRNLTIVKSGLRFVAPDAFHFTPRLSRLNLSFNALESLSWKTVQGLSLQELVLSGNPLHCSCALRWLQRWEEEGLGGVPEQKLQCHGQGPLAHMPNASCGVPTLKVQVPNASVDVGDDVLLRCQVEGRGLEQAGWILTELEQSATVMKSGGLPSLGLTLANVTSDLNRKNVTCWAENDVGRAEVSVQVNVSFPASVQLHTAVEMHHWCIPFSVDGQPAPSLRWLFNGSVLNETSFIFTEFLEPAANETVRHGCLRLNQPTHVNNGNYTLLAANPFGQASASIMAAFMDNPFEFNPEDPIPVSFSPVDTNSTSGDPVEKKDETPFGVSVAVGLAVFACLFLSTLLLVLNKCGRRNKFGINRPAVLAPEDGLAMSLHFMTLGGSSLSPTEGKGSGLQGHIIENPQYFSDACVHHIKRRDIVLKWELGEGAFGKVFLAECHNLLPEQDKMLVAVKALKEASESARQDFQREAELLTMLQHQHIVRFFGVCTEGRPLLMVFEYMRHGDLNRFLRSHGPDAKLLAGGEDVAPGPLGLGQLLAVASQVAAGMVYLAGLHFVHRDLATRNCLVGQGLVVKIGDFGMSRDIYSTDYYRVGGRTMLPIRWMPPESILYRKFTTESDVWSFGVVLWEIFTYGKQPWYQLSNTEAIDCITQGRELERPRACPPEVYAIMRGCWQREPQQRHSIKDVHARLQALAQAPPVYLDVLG
- EXPERIMENT_DESCRIPTION: Kinase panel (mobility shift)
- Assay type: biochemical

COMPOUND	inhibition at 5 µM
CSc1nc(C(=O)Nc2ccc(Oc3ccnc(C(=O)NCCN(C)C)c3)c(F)c2)c(-c2ccc(F)cc2)o1 [Compound 41]	< 50%
CSc1nc(C(=O)Nc2ccc(Oc3ccnc(C(=O)NCC(F)(F)F)c3)c(F)c2)c(-c2ccc(F)cc2)o1 [Compound 40]	< 50%
CNC(=O)c1cc(Oc2ccc(NC(=O)c3nc(NC)oc3-c3ccc(F)cc3)cc2F)ccn1 [Compound 14]	80 to 89%
CNC(=O)c1cc(Oc2ccc(NC(=O)c3nc(OC)oc3-c3ccc(F)cc3)cc2F)ccn1 [Compound 15]	50 to 79%
CNC(=O)c1cc(Oc2ccc(NC(=O)c3nc(OC)oc3-c3ccc(F)c(F)c3)cc2F)ccn1 [Compound 24]	50 to 79%
CNC(=O)c1cc(Oc2ccc(NC(=O)c3nc(NC)sc3-c3ccc(F)cc3C)cc2F)ccn1 [Compound 23]	80 to 89%

Now look at this entry.
Consider CSc1nc(C(=O)Nc2ccc(Oc3ccnc(C(=O)NC4COC4)c3)c(F)c2)c(-c2ccc(F)c(F)c2)o1 [Compound 37] . Its measured inhibition at 5 µM is < 50%

###

- TGT: TAOK3 (Homo sapiens)
- Sequence (Q9H2K8 1-898): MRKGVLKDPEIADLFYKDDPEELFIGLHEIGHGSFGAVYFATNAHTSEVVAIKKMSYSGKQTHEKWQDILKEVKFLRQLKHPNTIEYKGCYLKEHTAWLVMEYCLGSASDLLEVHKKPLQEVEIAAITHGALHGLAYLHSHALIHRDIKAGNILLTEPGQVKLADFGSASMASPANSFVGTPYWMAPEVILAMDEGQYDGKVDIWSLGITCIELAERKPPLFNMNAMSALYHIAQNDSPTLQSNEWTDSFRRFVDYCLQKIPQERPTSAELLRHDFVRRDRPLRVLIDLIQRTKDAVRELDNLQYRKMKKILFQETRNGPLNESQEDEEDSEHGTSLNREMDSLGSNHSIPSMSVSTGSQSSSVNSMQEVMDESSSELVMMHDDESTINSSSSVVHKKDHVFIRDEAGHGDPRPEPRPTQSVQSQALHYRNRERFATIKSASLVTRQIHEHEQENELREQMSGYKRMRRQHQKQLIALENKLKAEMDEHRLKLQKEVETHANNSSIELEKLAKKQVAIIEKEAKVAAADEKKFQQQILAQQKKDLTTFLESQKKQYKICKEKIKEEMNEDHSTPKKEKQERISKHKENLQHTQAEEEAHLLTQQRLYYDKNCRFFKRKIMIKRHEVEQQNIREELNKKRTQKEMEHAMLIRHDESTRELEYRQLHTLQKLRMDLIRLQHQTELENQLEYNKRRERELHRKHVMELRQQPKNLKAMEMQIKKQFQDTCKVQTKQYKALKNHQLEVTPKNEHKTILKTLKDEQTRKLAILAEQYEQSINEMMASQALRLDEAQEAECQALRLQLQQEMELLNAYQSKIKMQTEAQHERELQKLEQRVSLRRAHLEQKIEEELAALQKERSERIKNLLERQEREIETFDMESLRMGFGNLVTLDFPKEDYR
- EXPERIMENT_DESCRIPTION: Kinase panel (mobility shift)
- Assay type: biochemical
- Experimental: The disclosed compounds were tested for activity against a panel of 299 kinases. The target enzyme was incubated with fluorescently labeled substrate and test compounds in a standardized reaction mixture in 384 well plates. Upon termination of the reaction, samples were introduced onto microfluidic chips. […] Enzyme activity was measured by direct comparison of the fluorescence in the product and substrate peaks. […]
PROPERTY: inhibition at 5 µM

// known answers, use as guide
COMPOUND	TGT	PROPERTY	REPORTED
CSc1nc(C(=O)Nc2ccc(Oc3ccnc(C(=O)NC4COC4)c3)c(F)c2)c(-c2ccc(F)s2)o1 [Compound 28]	TAOK3 (Homo sapiens)	inhibition at 5 µM	< 50%
CSc1nc(C(=O)Nc2ccc(Oc3ccnc(C(=O)NC4COC4)c3)c(F)c2)c(-c2ccc(F)c(F)c2)o1 [Compound 37]	TAOK3 (Homo sapiens)	inhibition at 5 µM	< 50%
CNC(=O)c1cc(Oc2ccc(NC(=O)c3nc(SC(C)C)oc3-c3ccc(F)cc3)cc2F)ccn1 [Compound 34]	TAOK3 (Homo sapiens)	inhibition at 5 µM	80 to 89%
CNC(=O)c1cc(Oc2ccc(NC(=O)c3nc(C4CC4)oc3-c3ccc(F)cc3)cc2F)ccn1 [Compound 26]	TAOK3 (Homo sapiens)	inhibition at 5 µM	80 to 89%
CNC(=O)c1cc(Oc2ccc(NC(=O)c3nc(SC)oc3-c3ccc(F)cc3F)cc2F)ccn1 [Compound 12]	TAOK3 (Homo sapiens)	inhibition at 5 µM	50 to 79%
CNC(=O)c1cc(Oc2ccc(NC(=O)c3nc(SC)oc3-c3ccc(F)cc3Cl)cc2)ccn1 [Compound 3]	TAOK3 (Homo sapiens)	inhibition at 5 µM	< 50%

Measured inhibition at 5 µM of COc1nc(C(=O)Nc2ccc(Oc3ccnc(C(=O)NCC(F)(F)F)c3)c(F)c2)c(-c2ccc(F)cc2)o1 [Compound 43] : < 50%

###

For each of the molecules below, state its inhibition at 5 µM.
- TGT: TAOK2 (Homo sapiens, UniProt Q9UL54)
- Sequence (Q9UL54 whole entry, species assumed): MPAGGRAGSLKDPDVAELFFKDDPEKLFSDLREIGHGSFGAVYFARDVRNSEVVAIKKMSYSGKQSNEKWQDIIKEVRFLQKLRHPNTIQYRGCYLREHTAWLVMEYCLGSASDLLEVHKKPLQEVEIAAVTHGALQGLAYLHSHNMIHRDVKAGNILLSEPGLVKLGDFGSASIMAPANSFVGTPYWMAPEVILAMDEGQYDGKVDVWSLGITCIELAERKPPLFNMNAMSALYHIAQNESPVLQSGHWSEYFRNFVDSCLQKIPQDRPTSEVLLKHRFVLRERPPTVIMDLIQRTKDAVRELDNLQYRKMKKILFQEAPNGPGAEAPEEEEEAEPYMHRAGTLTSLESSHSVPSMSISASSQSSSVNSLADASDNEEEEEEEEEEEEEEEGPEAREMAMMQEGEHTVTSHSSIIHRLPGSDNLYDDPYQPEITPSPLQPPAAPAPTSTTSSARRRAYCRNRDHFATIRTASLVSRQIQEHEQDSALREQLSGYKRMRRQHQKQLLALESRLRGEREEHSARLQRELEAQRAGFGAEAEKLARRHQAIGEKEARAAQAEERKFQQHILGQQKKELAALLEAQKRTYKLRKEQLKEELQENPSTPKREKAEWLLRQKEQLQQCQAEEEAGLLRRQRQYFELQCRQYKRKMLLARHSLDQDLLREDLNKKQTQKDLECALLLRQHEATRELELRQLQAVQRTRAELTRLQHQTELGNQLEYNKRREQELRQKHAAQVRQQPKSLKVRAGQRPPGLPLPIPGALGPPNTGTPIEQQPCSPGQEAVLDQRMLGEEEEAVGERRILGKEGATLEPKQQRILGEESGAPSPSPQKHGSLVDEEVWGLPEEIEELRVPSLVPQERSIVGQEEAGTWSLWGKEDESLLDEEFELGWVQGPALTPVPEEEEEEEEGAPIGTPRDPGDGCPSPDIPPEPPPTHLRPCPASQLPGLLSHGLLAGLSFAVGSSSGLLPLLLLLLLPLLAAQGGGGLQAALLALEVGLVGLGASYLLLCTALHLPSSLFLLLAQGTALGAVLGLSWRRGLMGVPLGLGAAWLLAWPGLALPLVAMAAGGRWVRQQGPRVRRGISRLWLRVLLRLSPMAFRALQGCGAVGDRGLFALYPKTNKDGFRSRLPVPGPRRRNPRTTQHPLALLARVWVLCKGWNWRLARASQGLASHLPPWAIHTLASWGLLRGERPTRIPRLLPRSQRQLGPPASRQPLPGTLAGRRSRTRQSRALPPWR
- EXPERIMENT_DESCRIPTION: Kinase panel (mobility shift)
- Type: biochemical

MOLECULE	inhibition at 5 µM
CNC(=O)c1cc(Oc2ccc(NC(=O)c3nc(SC(C)C)oc3-c3ccc(F)cc3)cc2F)ccn1 [Compound 34]	50 to 79%
CSc1nc(C(=O)Nc2ccc(Oc3ccnc(C(=O)NC4CNC4)c3)c(F)c2)c(-c2ccc(F)cc2)o1 [Compound 29]	50 to 79%
CSc1nc(C(=O)Nc2ccc(Oc3ccnc(C(=O)NC4CNC4)c3)c(F)c2)c(-c2ccc(F)s2)o1 [Compound 27]	< 50%

Would you kindly look at the next entry?
Measured inhibition at 5 µM, CNC(=O)c1cc(Oc2ccc(NC(=O)c3nc(OC4CC4)oc3-c3ccc(F)cc3)cc2F)ccn1 [Compound 32] : 50 to 79%

###

- TGT: TYRO3 (Homo sapiens, UniProt Q06418)
- Sequence (Q06418 41-890, species assumed): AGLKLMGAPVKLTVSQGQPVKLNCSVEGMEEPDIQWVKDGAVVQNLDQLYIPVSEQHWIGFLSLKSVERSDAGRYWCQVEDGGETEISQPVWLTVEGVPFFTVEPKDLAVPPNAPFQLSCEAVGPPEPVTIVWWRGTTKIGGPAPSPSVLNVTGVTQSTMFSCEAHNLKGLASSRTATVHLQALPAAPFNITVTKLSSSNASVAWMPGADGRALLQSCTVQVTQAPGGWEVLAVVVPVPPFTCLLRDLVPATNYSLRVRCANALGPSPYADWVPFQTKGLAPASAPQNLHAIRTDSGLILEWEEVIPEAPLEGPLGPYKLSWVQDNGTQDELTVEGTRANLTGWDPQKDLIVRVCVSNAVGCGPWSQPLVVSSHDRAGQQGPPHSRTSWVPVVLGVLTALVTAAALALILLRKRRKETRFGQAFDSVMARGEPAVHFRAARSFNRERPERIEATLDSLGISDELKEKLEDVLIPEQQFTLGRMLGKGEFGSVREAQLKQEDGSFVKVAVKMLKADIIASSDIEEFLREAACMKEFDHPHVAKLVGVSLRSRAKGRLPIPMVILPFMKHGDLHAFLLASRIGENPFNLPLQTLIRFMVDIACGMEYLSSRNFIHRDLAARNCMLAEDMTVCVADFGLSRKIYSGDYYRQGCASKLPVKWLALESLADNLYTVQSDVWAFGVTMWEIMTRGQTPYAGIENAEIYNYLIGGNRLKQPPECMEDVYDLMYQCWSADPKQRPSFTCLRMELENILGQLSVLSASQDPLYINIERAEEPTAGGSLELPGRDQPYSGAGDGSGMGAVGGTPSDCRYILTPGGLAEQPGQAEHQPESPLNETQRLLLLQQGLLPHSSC
- EXPERIMENT_DESCRIPTION: Kinase panel (mobility shift)
- Format: biochemical
PROPERTY: inhibition at 5 µM

SMILES	TGT	REPORTED
CSc1nc(C(=O)Nc2ccc(Oc3ccnc(C(=O)NCC(F)(F)F)c3)c(F)c2)c(-c2ccc(F)cc2)o1	TYRO3 (Homo sapiens, UniProt Q06418)	< 50%

Below are 6 compounds. Give each one its inhibition at 5 µM.
1. CNC(=O)c1cc(Oc2ccc(NC(=O)c3nc(OC)oc3-c3ccc(F)c(F)c3)cc2F)ccn1
2. CNC(=O)c1cc(Oc2ccc(NC(=O)c3nc(OC)oc3-c3ccc(F)cc3)cc2F)ccn1
3. CNC(=O)c1cc(Oc2ccc(NC(=O)c3nc(OCC(F)(F)F)oc3-c3ccc(F)cc3)cc2F)ccn1
4. COc1nc(C(=O)Nc2ccc(Oc3ccnc(C(=O)NC4COC4)c3)c(F)c2)c(-c2ccc(F)cc2)o1
5. CNC(=O)c1cc(Oc2ccc(NC(=O)c3nc(SC)oc3-c3ccc(F)cc3F)cc2F)ccn1
6. CNC(=O)c1cc(Oc2ccc(NC(=O)c3nc(SC)oc3-c3ccc(Cl)s3)cc2)ccn1

["50 to 79%", "90 to 94%", "50 to 79%", "50 to 79%", "90 to 94%", "80 to 89%"]

###

- TGT: EPH-A5 (Homo sapiens, UniProt P54756)
- Sequence (P54756 25-1037, species assumed): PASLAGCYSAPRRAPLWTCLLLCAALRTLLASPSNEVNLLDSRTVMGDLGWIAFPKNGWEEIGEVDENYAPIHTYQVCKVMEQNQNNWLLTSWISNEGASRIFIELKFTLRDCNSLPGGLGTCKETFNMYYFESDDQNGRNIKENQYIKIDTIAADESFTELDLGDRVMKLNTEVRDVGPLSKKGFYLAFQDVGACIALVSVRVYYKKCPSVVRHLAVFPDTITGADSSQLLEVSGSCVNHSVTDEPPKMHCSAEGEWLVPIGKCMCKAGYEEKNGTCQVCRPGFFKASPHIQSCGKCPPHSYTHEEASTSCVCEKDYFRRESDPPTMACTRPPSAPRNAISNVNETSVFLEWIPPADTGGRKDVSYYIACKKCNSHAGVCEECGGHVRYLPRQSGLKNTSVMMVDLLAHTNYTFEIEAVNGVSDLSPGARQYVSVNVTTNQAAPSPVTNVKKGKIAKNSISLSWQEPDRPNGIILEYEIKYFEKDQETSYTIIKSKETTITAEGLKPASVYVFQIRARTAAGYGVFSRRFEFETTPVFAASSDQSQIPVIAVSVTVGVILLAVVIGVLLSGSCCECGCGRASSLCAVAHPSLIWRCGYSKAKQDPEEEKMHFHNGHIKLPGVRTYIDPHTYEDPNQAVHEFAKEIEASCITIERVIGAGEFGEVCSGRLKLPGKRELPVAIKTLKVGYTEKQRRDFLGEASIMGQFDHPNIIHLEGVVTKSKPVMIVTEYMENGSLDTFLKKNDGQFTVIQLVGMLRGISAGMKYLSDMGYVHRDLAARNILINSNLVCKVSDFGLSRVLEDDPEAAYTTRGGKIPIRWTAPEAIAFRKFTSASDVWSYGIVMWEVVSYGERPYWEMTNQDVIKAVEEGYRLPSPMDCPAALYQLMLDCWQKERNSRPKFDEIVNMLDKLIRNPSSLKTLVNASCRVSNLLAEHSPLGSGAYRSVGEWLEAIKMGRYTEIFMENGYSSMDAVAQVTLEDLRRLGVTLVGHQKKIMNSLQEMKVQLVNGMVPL
- EXPERIMENT_DESCRIPTION: Kinase panel (mobility shift)
- Assay type: biochemical
- CONDITION_SET: at 5 um

SMILES	inhibition of kinase activity, EPH-A5
CNC(=O)c1cc(Oc2ccc(NC(=O)c3nc(OC4CC4)oc3-c3ccc(F)cc3)cc2F)ccn1	D (category D for 50-79)
CNC(=O)c1cc(Oc2ccc(NC(=O)c3nc(SC)oc3-c3ccc(F)cc3F)cc2F)ccn1	D (category D for 50-79)

###

Provide the recorded inhibition at 5 µM for the entries that follow.
- TGT: UniProt Q12866
- Sequence (Q12866 21-999): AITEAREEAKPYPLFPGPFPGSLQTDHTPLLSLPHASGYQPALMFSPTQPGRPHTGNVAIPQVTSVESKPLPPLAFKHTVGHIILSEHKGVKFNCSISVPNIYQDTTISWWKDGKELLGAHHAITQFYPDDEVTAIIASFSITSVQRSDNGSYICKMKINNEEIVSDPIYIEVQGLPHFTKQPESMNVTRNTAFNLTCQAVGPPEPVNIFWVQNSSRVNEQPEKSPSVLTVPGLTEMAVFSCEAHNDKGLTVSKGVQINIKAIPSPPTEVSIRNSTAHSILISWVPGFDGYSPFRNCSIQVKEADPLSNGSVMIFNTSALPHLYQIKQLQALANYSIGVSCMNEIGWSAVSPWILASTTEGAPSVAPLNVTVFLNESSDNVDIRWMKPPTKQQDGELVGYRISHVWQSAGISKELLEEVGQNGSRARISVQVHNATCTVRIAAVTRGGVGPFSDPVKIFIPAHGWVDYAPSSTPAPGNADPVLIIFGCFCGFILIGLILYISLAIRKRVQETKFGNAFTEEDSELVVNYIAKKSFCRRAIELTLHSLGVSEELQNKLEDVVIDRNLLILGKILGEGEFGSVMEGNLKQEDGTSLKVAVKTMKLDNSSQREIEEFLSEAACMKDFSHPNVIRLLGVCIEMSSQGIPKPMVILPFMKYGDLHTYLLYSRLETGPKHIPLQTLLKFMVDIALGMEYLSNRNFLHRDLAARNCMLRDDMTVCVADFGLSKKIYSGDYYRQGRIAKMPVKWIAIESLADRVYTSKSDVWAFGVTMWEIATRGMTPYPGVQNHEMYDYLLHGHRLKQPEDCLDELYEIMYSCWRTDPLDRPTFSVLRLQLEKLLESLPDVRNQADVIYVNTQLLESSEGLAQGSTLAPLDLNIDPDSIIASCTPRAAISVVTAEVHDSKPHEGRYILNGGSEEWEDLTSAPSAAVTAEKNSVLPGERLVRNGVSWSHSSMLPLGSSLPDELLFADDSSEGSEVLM
- EXPERIMENT_DESCRIPTION: Kinase panel (mobility shift)
- Type: biochemical

COMPOUND	PROPERTY	REPORTED
CSc1nc(C(=O)Nc2ccc(Oc3ccnc(C(=O)NC4CNC4)c3)c(F)c2)c(-c2ccc(F)cc2)o1 [Compound 29]	inhibition at 5 µM	50 to 79%
[2H]C([2H])([2H])NC(=O)c1cc(Oc2ccc(NC(=O)c3nc(SC)oc3-c3ccc(F)c(F)c3)cc2F)ccn1 [Compound 33]	inhibition at 5 µM	< 50%

Quick request: inhibition at 5 µM for each listed item, please.
1. CSc1nc(C(=O)Nc2ccc(Oc3ccnc(C(=O)NC4COC4)c3)c(F)c2)c(-c2ccc(F)c(F)c2)o1 [Compound 37]
2. CSc1nc(C(=O)Nc2ccc(Oc3ccnc(N)c3Cl)c(F)c2)c(-c2ccc(F)cc2)o1 [Compound 1]
3. CNC(=O)c1cc(Oc2ccc(NC(=O)c3nc(NC)sc3-c3ccc(F)cc3C)cc2F)ccn1 [Compound 23]
4. CNC(=O)c1cc(Oc2ccc(NC(=O)c3nc(SC)oc3-c3ccc(F)cc3F)cc2)ccn1 [Compound 6]
5. CNC(=O)c1ccc(Oc2ccc(NC(=O)c3nc(Cl)oc3-c3ccc(F)cc3)c(F)c2)cn1 [Compound 36]

< 50%
< 50%
50 to 79%
90 to 94%
< 50%

Reference source: patent US11629143B2
